The origin of these recorded values is PubChem BioAssay AID1159580.

assayComment: chemical genetic growth profiling, strain panel (AID 1159580);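 also: tested at 20 µM; growth read once vehicle control cultures reached saturation at 30 °C; 1 = growth at the plate median or of vehicle wells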
assayConditions: S. cerevisiae deletion strains, growth OD, locus YMR307W, strain GAS1, stronger effect = lower value
The campaign covered roughly 5,500 compounds. About 2,000 (36%) were called active. Another 18% or so got no clear call; they are omitted. The list shows a part of the results.
Classes based on normalized growth: class 1 (below 0.9), class 2 (0.9 to below 1), class 3 (1 or more)

These recorded examples may help you get a feel for the data.
compound	assignedLabel
CCOC(=O)/C=C(\C)OP(=O)(OC)OC	class 3
CCCCCCCCCCCCC[N+](C)(C)Cc1ccccc1	class 1
O=[N+]([O-])O[C@H]1CO[C@H]2[C@@H]1OC[C@H]2O[N+](=O)[O-]	class 3
OC(CCN1CCCCC1)(c1ccccc1)c1ccccc1	class 3
COC(=O)COc1cc(Cl)c(Cl)cc1Cl	class 3
COc1c(O)cc2oc3cc(O)c(CC=C(C)C)c(O)c3c(=O)c2c1CC=C(C)C	class 1

Form: Item = Cc1c(N(C)C)c(=O)n(-c2ccccc2)n1C ; Class = ?
class 3

Please do the same for CNc1ccccc1C(=O)N1CCc2c([nH]c3ccccc23)C1=O as well.
class 2

Please do the same for CNC(=S)NN=C(N)c1ccccn1 as well.
class 1

Please do the same for Cc1ccc2cc(C)c(C)cc2c1 as well.
class 1

Please do the same for CC(=O)OCC(CCn1cnc2cnc(N)nc21)COC(C)=O as well.
class 2

Please do the same for Oc1ccc2c3c1O[C@H]1c4[nH]c5c(c4C[C@@]4(O)[C@@H](C2)N(CC2CC2)CC[C@]314)C[C@@]1(O)[C@H]2Cc3ccc(O)c4c3[C@@]1(CCN2CC1CC1)[C@H]5O4 as well.
class 3

Please do the same for O=C(O)COCC(=O)N1CCc2c([nH]c3ccccc23)C1C(F)(F)F (configuration not stated) as well.
class 3

Please do the same for CCCCCC(C)N (configuration not stated) as well.
class 3

Please do the same for NC(N)=NOCC[C@H](N)C(=O)O as well.
class 3

Please do the same for CCN(CC)C(=S)SSC(=S)N(CC)CC as well.
class 1

###

assayComment: chemical genetic growth profiling, strain panel (AID 1159580)
assayConditions: S. cerevisiae deletion strains, growth OD, locus YDR001C, strain nth1, stronger effect = lower value
The whole screen tested about 5,500 compounds, of which about 2,000 (36%) were called active. Roughly 18% stayed inconclusive and do not appear here. The list shows a part of the results.
// values below are reported normalized growth
Kindly provide the number alone.

Worked cases, normalized growth given:
> print(dat)
                                   compound     outcomemeasure  obsvalue
1               CCCCOc1ccc(OCCCN2CCOCC2)cc1  normalized growth     0.983
2            CCCCOc1ccc(C(=O)CCN2CCCCC2)cc1  normalized growth     0.992
3  COc1cc2c(cc1OC)C(=O)C(CC1CCN(Cc3ccccc3)CC1)C2 (configuration not stated)  normalized growth      1.02
4          CCCCCCCCCCCCC[N+](C)(C)Cc1ccccc1  normalized growth    0.0567
5      NC(N)=Nc1nc(CSCCC(N)=NS(N)(=O)=O)cs1  normalized growth     0.972

Would you kindly share the measured normalized growth for CNC1(C)C2CCC(C2)C1(C)C (configuration not stated) ?
0.996

Please do the same for Cc1cc(C(C)(C)CC(C)(C)C)ccc1OCCOCC[N+](C)(C)Cc1ccccc1 as well.
0.0561

###

assayComment: chemical genetic growth profiling, strain panel (AID 1159580)
assayConditions: S. cerevisiae deletion strains, growth OD, locus YDR150W, strain NUM1, stronger effect = lower value
The campaign covered roughly 5,500 compounds. About 2,000 (36%) were called active. Not shown: some 18% with an inconclusive outcome. The list shows a part of the results.
We label by threshold. Values of normalized growth strictly beneath 1 are T. Values of 1 and up are F.

compound	assignedLabel
CCN(CC)C(=S)SSC(=S)N(CC)CC	T
O=C(O)CSCCOc1ccccc1	T
S=C=NCc1ccccc1	T

Does the reported normalized growth of N#Cc1cnn(-c2ccccc2)c1-n1cccc1 stay below 1?
T

Please do the same for CC1(C)C2CC[C@]3(C)C(C(=O)C=C4[C@H]5C[C@@](C)(C(=O)O)CC[C@]5(C)CC[C@]43C)[C@@]2(C)CC[C@@H]1O (some centres not stated) as well.
F

Please do the same for C=CC(C)(C)c1c2c(c(O)c3c(=O)c4ccc(O)c(O)c4oc13)C=CC(C)(C)O2 as well.
T

###

assayComment: chemical genetic growth profiling, strain panel (AID 1159580);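 also: tested at 20 µM; growth read once vehicle control cultures reached saturation at 30 °C; 1 = growth at the plate median or of vehicle wells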
assayConditions: S. cerevisiae deletion strains, growth OD, locus YEL061C, strain CIN8
Out of some 5,500 compounds screened, about 2,000 (36%) were called active. Another 18% or so got no clear call; they are omitted. No stated cut-off is given here; in the data, active means normalized growth mostly below about 0.91 (no sharp cut-off); inconclusive means no clear call, values can overlap the other calls; inactive means mostly above about 0.92. Some of the results follow.
The categories you may choose from are 1 (yes) for active, 0 (no) for inactive

> print(dat)
                                   compound  assignedlabel
1  CC(=O)O[C@]1(C(C)=O)CCC2C3C=C(C)C4=CC(=O)CCC4(C)C3CCC21C (stereo partly drawn)         0 (no)
2  CC(C)(C)CC(C)(C)c1ccc(OCCOCC[N+](C)(C)Cc2ccccc2)cc1         0 (no)
3            CN(C)C=Nc1nc2c(s1)CCc1ccccc1-2        1 (yes)
4  Cc1cc(C(C)(C)CC(C)(C)C)ccc1OCCOCC[N+](C)(C)Cc1ccccc1        1 (yes)
5  C=C1CC[C@H](O)C/C1=C/C=C1\CCC[C@]2(C)C([C@H](C)/C=C/[C@H](C)C(C)C)CC[C@@H]12 (stereo partly drawn)         0 (no)
6  CC(=O)O[C@]1(C(C)=O)CCC2C3C[C@H](C)C4=CC(=O)CC[C@]4(C)C3CC[C@@]21C (stereo partly drawn)         0 (no)
7          CCCCCCCCCCCCC[N+](C)(C)Cc1ccccc1        1 (yes)
8  COc1ccc(OC)c(C(=O)c2cc(OC)c(OC)c(OC)c2)c1         0 (no)

What outcome does the record of this test show for CC(=C(CCOP(=O)(O)O)SC(=O)c1ccccc1)N(C=O)Cc1cnc(C)nc1N ?
0 (no)

Please do the same for NC(N)=Nc1nc(CSCCC(N)=NS(N)(=O)=O)cs1 as well.
0 (no)

Please do the same for C=CC1=C(C(=O)O)N2C(=O)[C@@H](NC(=O)/C(=N/O)c3csc(N)n3)[C@H]2SC1 as well.
0 (no)

Please do the same for O=C(O)CSCCOc1ccccc1 as well.
0 (no)

Please do the same for CC(=O)[C@H]1CCC2C3C[C@H](C)C4=CC(=O)CC[C@]4(C)C3[C@@H](O)C[C@@]21C (stereo partly drawn) as well.
0 (no)

###

assayComment: chemical genetic growth profiling, strain panel (AID 1159580);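 also: tested at 20 µM; growth read once vehicle control cultures reached saturation at 30 °C; 1 = growth at the plate median or of vehicle wells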
assayConditions: S. cerevisiae deletion strains, growth OD, locus YKL160W, strain elf1
The whole screen tested about 5,500 compounds, of which about 2,000 (36%) were called active. Roughly 18% stayed inconclusive and do not appear here. Rule as the data show it: active = normalized growth mostly below about 0.91 (no sharp cut-off); inconclusive = no clear call, values can overlap the other calls; inactive = mostly above about 0.92. This is one part of the list.
The categories you may choose from are T = active, F = inactive

These recorded examples may help you get a feel for the data.
molecule	assignedLabel
O=C(O)COc1cc(Cl)c(Cl)cc1Cl	F
O=C(O)C1CC([C@@H]2CCCCN2)CN2CCCCC12 (stereo not given in full)	F
NC/C=C/C(=O)O	F
CC1(C)S[C@@H]2[C@H](NC(=O)[C@H](NC(=O)N3CCNC3=O)c3ccccc3)C(=O)N2C1C(=O)O (stereo not given in full)	F
CC1(C)C2CC[C@]3(C)C(C(=O)C=C4[C@@H]5C[C@@](C)(C(=O)O)CC[C@]5(C)CC[C@]43C)[C@@]2(C)CC[C@@H]1OC(=O)CCC(=O)O (stereo not given in full)	F
OC(CCN1CCCCC1)(c1ccccc1)c1ccccc1	F
CCCCOc1ccc(C(=O)CCN2CCCCC2)cc1	F
CCCCOc1ccc(OCCCN2CCOCC2)cc1	F

What outcome does the record of this test show for S=C=NCc1ccccc1 ?
T

Please do the same for CCC1(c2ccc(N)cc2)CCC(=O)NC1=O (stereo not given) as well.
F

###

assayComment: chemical genetic growth profiling, strain panel (AID 1159580);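 also: tested at 20 µM; growth read once vehicle control cultures reached saturation at 30 °C; 1 = growth at the plate median or of vehicle wells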
assayConditions: S. cerevisiae deletion strains, growth OD, locus YKL085W, strain MDH1 (second series)
The whole screen tested about 5,500 compounds, of which about 2,000 (36%) were called active. Not shown: some 18% with an inconclusive outcome. Cut-off read from the data, not from the text of the source: active = normalized growth mostly below about 0.91 (no sharp cut-off); inconclusive = no clear call, values can overlap the other calls; inactive = mostly above about 0.92. The list shows a part of the results.
The categories you may choose from are True for active, False for inactive

These recorded examples may help you get a feel for the data.
> print(dat)
                                   molecule  assignedlabel
1  COc1cc(OC)c2c(c1)O[C@H](c1ccc(OC)c(OC)c1)[C@@H](O)C2          False
2                  NC(N)=NOCC[C@H](N)C(=O)O          False
3  CC(=O)[C@H]1CCC2C3C[C@H](C)C4=CC(=O)CC[C@]4(C)C3[C@@H](O)C[C@@]21C (stereo partly specified)          False

What outcome does the record of this test show for COc1ccc(C(=O)c2ccccc2O)c(O)c1 ?
True

Please do the same for COc1c(O)cc2oc3cc(O)c(CC=C(C)C)c(O)c3c(=O)c2c1CC=C(C)C as well.
True

Please do the same for Cc1c(N(C)C)c(=O)n(-c2ccccc2)n1C as well.
False
